- Test system: NCI-H522 lung
- assayOverview: NCI-60 one-dose screen, 48 h (100 = growth as untreated, 0 = no growth, -100 = all killed)
- testConditions: 10 µM unless noted
About 83,000 compounds went through this panel and 20% of them were active in at least one assay; those are over-represented in the sample as a whole.
growth under 20% gets true, anything at or over 20% gets false.

| compound | classAssignment |
| --- | --- |
| CC[C@H](NC(=O)[C@H]1CCCCN1C)C(=O)N(C)[C@H](C[C@@H](OC(C)=O)c1nc(C(=O)N[C@@H](Cc2ccccc2)C[C@H](C)C(=O)O)cs1)C(C)C | true |
| O=C(N/N=C\c1ccc(N(CCCl)CCCl)cc1Cl)c1cccnc1 | false |
| C[C@@]1(CCCCCCCCCc2ccc(O)cc2)C[C@]2(C)OC(=O)C[C@@H]2OO1 | false |
| CC[C@H](C)[C@H](NC(=O)c1ccccn1)C(=O)N(C)[C@H](C[C@@H](OC(C)=O)c1nc(C(=O)N[C@@H](Cc2ccccc2)C[C@H](C)C(=O)OC)cs1)C(C)C | true |
| O=C1Nc2ccccc2C2c3cccn3-c3ccccc3CN12 (configuration not stated) | true |
| ClCCN(CCCl)Cc1ccc(Nc2ccnc3cc(Cl)ccc23)cc1 | true |

Request: Input CC(C)(C)C(=O)OCOP(=O)(NCc1ccccc1)C1CCCN(O)C1=O (configuration not stated) ; condition: growth strictly below 20%. Does it hold?
Response: true

Request: Input `COc1ccc(/C=C\c2cc(OC)c(OC)c(OC)c2)cc1NC(=O)/C=C/c1ccc(OC)c(OC)c1` ; condition: growth strictly below 20%. Does it hold?
Response: true

Request: Input COC(=O)C1OC(Oc2ccc(N(CCCl)CCCl)cc2)C(OC(C)=O)C(OC(C)=O)C1OC(C)=O (configuration not stated) ; condition: growth strictly below 20%. Does it hold?
Response: false

###

- Test system: RPMI-8226 leukemia
- assayOverview: NCI-60 one-dose screen, 48 h
- testConditions: 10 µM unless noted
About 83,000 compounds went through this panel and 20% of them were active in at least one assay; those are over-represented in the sample as a whole. Activity calls are given as the source filed them. How the source made its calls: active means growth percent below 10; inactive means the rest.
Hi there, use one of these labels in your reply, thanks! True (active), False (inactive)

| molecule | measuredOn | classAssignment |
| --- | --- | --- |
| O=[N+]([O-])CC(c1ccccc1Cl)c1c(-c2ccccc2)[nH]c2ccccc12 (stereo not given) | RPMI-8226 leukemia | False |
| COc1cc(/C=N/C2=C(C#N)C(c3ccco3)c3c(c4cc(C)ccc4oc3=O)O2)cc(OC)c1OC (stereo not given) | RPMI-8226 leukemia | False |
| COC(=O)[C@@H](C)C[C@H](Cc1ccccc1)NC(=O)c1nc([C@@H](C[C@H](C(C)C)N(C)C(=O)[C@@H](NC(=O)[C@H]2CCCCN2C)C(C)C)OC(C)=O)sc1C(C)C | RPMI-8226 leukemia | False |
| CC1(C)N=C(N)N=C(N)N1c1ccc(OCCCNC(=O)Nc2ccc(S(=O)(=O)F)cc2)c(Cl)c1 | RPMI-8226 leukemia | False |
| Fc1ccc(N2COOC3(OOC2)C2CC4CC(C2)CC3C4)cc1 | RPMI-8226 leukemia | False |

Request: Which result was noted for this molecule in the test: `CC[C@H](C)[C@@H]([C@@H](CC(=O)N1CCC[C@H]1[C@H](OC)[C@@H](C)C(=O)N[C@H](C)[C@@H](O)c1ccccc1)OC)N(C)C(=O)[C@@H](NC(=O)[C@@H](NC)C(C)C)C(C)C`
Response: False

Request: Which result was noted for this molecule in the test: `Cc1ccccc1NC(=NCCCN1CC1)Nc1ccccc1C`
Response: False

Request: Which result was noted for this molecule in the test: `C=C1[C@@H](C)[C@H]2[C@H](Cc3ccccc3)NC(=O)[C@]23[C@@H](O)/C=C/[C@@](C)(O)C(=O)[C@@H](C)C/C=C/[C@H]3[C@@H]1O`
Response: False

Request: Which result was noted for this molecule in the test: `Nc1c(F)cc(-c2nc3cc(F)ccc3[se]2)cc1Br`
Response: False

Request: Which result was noted for this molecule in the test: `COc1ccc2c(c1)c(-c1nc(-c3c[nH]c4ncccc34)cs1)cn2CCN1CCOCC1`
Response: False

Request: Which result was noted for this molecule in the test: `O=[As](O)(O)c1ccccc1[As](=O)(O)O`
Response: False

Request: Which result was noted for this molecule in the test: `c1ccc(CSC(c2ccccc2)c2ccccc2)cc1`
Response: False

Request: Which result was noted for this molecule in the test: `Fc1ccc(C2=CCNCC2)cc1`
Response: False

Request: Which result was noted for this molecule in the test: `COC(=O)[C@@H](C)C[C@H](Cc1ccccc1)NC(=O)c1csc([C@@H](C[C@H](C(C)C)N(C)C(=O)[C@@H](NC(=O)[C@H]2CCCCN2C)C(C(F)(F)F)C(F)(F)F)OC(C)=O)n1`
Response: False

Request: Which result was noted for this molecule in the test: `COC(=O)[C@H](Cc1ccccc1)NC(=O)c1csc([C@@H](C[C@H](C(C)C)N(C)C(=O)[C@@H](NC(=O)[C@H]2CCCCN2C)C2CC2)OC(C)=O)n1`
Response: False

Request: Which result was noted for this molecule in the test: `Cc1c(C)c([N+](=O)[O-])c(C)c(C)c1[N+](=O)[O-]`
Response: False

Request: Which result was noted for this molecule in the test: `CC(=O)O[C@H]1CC[C@@]2(C)C(=CC[C@H]3[C@@H]4C[C@@H](N5CC5)[C@H](C(C)=O)[C@@]4(C)CC[C@@H]32)C1`
Response: False

Request: Which result was noted for this molecule in the test: `Fc1cccc(NCOOC2(OOCNc3cccc(F)c3)CCCCC2)c1`
Response: False

Request: Which result was noted for this molecule in the test: Clc1ccc(CSC(Cn2ccnc2)c2ccc(Cl)cc2Cl)cc1 (stereo not given)
Response: False

Request: Which result was noted for this molecule in the test: `C=CC1=C[C@@H]2[C@@H]3O[C@]4(CC[C@H](O4)[C@@H](C)C[C@@H](O)C3=O)C[C@H](O)C3=NCC[C@@]32CC1`
Response: True
